This listing pairs molecules with measured percent degradation of TPM3-TRKA protein at 0.01 µM.
# MEASURED TARGET: TPM3-TRKA fusion protein (Homo sapiens, UniProt P04629)
# Construct: The resulted chimeric proteins always retain the kinase domain of TRK proteins; TPM3 (fusion partner, N-terminal part of tropomyosin alpha-3, P06753); endogenous in cells; host or cells: KM12 colon cancer cells; the other entry of the earlier key: TPM3 (P06753, Tropomyosin alpha-3 chain)
# Sequence (P04629 with tags, fused parts or gaps): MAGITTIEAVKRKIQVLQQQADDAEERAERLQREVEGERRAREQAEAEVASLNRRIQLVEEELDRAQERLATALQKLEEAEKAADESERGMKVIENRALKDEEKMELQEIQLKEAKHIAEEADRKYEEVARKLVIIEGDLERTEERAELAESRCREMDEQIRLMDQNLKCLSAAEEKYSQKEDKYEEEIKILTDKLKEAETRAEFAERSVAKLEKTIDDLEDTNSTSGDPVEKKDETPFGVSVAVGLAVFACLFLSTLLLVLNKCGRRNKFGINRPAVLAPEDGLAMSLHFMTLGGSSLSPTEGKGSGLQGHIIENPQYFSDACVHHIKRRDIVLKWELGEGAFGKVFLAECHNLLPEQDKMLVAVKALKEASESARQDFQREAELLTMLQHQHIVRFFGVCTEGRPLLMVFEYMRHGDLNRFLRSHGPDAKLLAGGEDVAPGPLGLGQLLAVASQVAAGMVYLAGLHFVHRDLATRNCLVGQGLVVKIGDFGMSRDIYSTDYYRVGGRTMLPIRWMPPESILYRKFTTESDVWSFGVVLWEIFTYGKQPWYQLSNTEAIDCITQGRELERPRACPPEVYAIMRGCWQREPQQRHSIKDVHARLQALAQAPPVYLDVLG
# PROTOCOL SUMMARY: TPM3-TRKA fusion protein levels in KM12 cells (Western blot)
# Format: cell-based
# STUDY CONDITIONS: 16 h; TPM3-TRKA degradation in KM12 cells at 10 nM compound, category of percentage degradation; read-out: Degradation (at 10 nM)
QUANTITY MEASURED: percent degradation of TPM3-TRKA protein at 0.01 µM

MOLECULE: O=C1CCC(N2C(=O)c3cccc(NCCOCCOCCOCCC(=O)N4CCN(c5cccc(-c6cnc7ccc(N8CCC[C@@H]8c8cccc(F)c8)nn67)n5)CC4)c3C2=O)C(=O)N1 (some centres unmarked)
MEASURED TARGET: TPM3-TRKA fusion protein (Homo sapiens, UniProt P04629)
VALUE REPORTED: 50 to 80%

MOLECULE: O=C1CCC(N2C(=O)c3cccc(NCCOCCOCCOCCC(=O)N4CCN(c5ccc(C(=O)Nc6n[nH]c7ccc(Cc8cc(F)cc(F)c8)cc67)c(NC6CCOCC6)c5)CC4)c3C2=O)C(=O)N1 (centres unmarked)
MEASURED TARGET: TPM3-TRKA fusion protein (Homo sapiens, UniProt P04629)
VALUE REPORTED: > 80%

MOLECULE: COc1ccc(CN(CCN2CCN(c3cccc(-c4cnc5ccc(N6CCC[C@@H]6c6cccc(F)c6)nn45)n3)CC2)c2ccc3c(c2)C(=O)N(C2CCC(=O)NC2=O)C3=O)cc1 (some centres unmarked)
MEASURED TARGET: TPM3-TRKA fusion protein (Homo sapiens, UniProt P04629)
VALUE REPORTED: < 50%

MOLECULE: O=C(CN1CCN(c2cccc(-c3cnc4ccc(N5CCC[C@@H]5c5cccc(F)c5)nn34)n2)CC1)NCCNc1ccc2c(c1)C(=O)N(C1CCC(=O)NC1=O)C2=O (some centres unmarked)
MEASURED TARGET: TPM3-TRKA fusion protein (Homo sapiens, UniProt P04629)
VALUE REPORTED: > 80%

MOLECULE: Cc1ncsc1-c1ccc(CNC(=O)[C@@H]2C[C@@H](O)CN2C(=O)[C@@H](NC(=O)CCOCCOCCOCCC(=O)N2CCN(c3ccc(C(=O)Nc4n[nH]c5ccc(Cc6cc(F)cc(F)c6)cc45)c(NC4CCOCC4)c3)CC2)C(C)(C)C)cc1
MEASURED TARGET: TPM3-TRKA fusion protein (Homo sapiens, UniProt P04629)
VALUE REPORTED: < 50%
